Test description: Stability of the compound assessed as human serum esterase-mediated compound hydrolysis by measuring half life at 100 uM by RP-HPLC analysis
Format: ADME, cell-free
Measurement name: half-life at 100 µM

Please review the following examples before continuing.
Compound | half-life at 100 µM
COc1cccc2c1C(=O)c1c(O)c3c(c(O)c1C2=O)C[C@@](O)(C(=O)COC(=O)c1ccc(Oc2no[n+]([O-])c2S(=O)(=O)c2ccccc2)cc1)C[C@@H]3O[C@H]1C[C@H](N)[C@H](O)[C@H](C)O1.Cl | > 24 h
COc1cccc2c1C(=O)c1c(O)c3c(c(O)c1C2=O)C[C@@](O)(C(=O)COC(=O)CCCC(CO[N+](=O)[O-])O[N+](=O)[O-])C[C@@H]3O[C@H]1C[C@H](N)[C@H](O)[C@H](C)O1.Cl (some centres undefined) | 6 h
COc1cccc2c1C(=O)c1c(O)c3c(c(O)c1C2=O)C[C@@](O)(C(=O)COC(=O)C(C)(C)CO[N+](=O)[O-])C[C@@H]3O[C@H]1C[C@H](N)[C@H](O)[C@H](C)O1.Cl | 21.7 h

Consider now this further compound.
Name the recorded half-life at 100 µM for COc1cccc2c1C(=O)c1c(O)c3c(c(O)c1C2=O)C[C@@](O)(C(=O)COC(=O)c1ccc(OCC(CO[N+](=O)[O-])O[N+](=O)[O-])cc1)C[C@@H]3O[C@H]1C[C@H](N)[C@H](O)[C@H](C)O1.Cl (some centres undefined) .
34.7 h
